Tested on: M14 melanoma
EXPERIMENT: NCI-60 one-dose screen, 48 h (100 = growth as untreated, 0 = no growth, -100 = all killed)
CONDITION PARAMETERS: 10 µM unless noted
This is part of a sample that, as a whole, favours compounds with a hit. Of some 83,000 tested, about 20% had one in any assay. Active and inactive are the calls of the source. Rule for the calls: active = growth percent below 10; inactive = the rest.
READOUT TYPE: growth

// below: answered compounds
CCN(CC)c1ccc(/C=C/c2ccc3cc(C)ccc3[n+]2CC)cc1 | 2.07% (active)
Cn1cc(-c2nnc(-c3cn(C)c4ncccc34)o2)c2ccccc21 | 35.5% (inactive)
C=C(C)[C@@H]1CC[C@]2(C)[C@H](CC=C3[C@@H]4[C@@H](C)[C@H](C)CC[C@]4(C(N)=O)CC[C@]32C)[C@@]1(C)CCC#N | -3.77% [100 µM] (active)
COc1cc2c(cc1OC(C)=O)C(=O)CCCC2 | 87.9% (inactive)
C=C(C)[C@@H]1CC[C@]2(C(=O)NCCNCCNCCN)CC[C@]3(C)[C@H](CC[C@@H]4[C@@]5(C)CCC(=O)C(C)(C)[C@@H]5CC[C@]43C)[C@@H]12 | -62.8% [100 µM] (active)

Prompt line: // query growth value for entry `C[C@@H]1C[C@H]2C(=O)O[C@@H](C)[C@H](NC(=O)[C@H](Cc3cc(F)cc(F)c3)NC(=O)Nc3ccc(Cl)cc3F)C(=O)N3C[C@H](O)C[C@H]3C(=O)N3CCN(C)C[C@H]3C(=O)N[C@@H](C)C(=O)N2C1`
Response line: 72.9% (inactive)

Prompt line: `COc1cc(-c2nc(SCCC(C)C)nc(Nc3ccc(S(N)(=O)=O)cc3)c2C#N)cc(OC)c1OC` , same question.
Response line: 20.6% (inactive)

Prompt line: Also `CC[C@]12C=CCN3CC[C@@]4(c5ccc(OC)cc5N(C)[C@H]4[C@@](O)(C(=O)OC)[C@@H]1OC(=O)CCC(=O)N[C@H](Cc1c[nH]c4ccccc14)C(=O)OC)[C@@H]32` ?
Response line: -32.8% [100 µM] (active)

Prompt line: Now the same for `C=C(C)[C@@H]1CC[C@]2(C)[C@H](CC[C@@H]3[C@@H]([C@@](C)(O)CCC=C(C)C)CC[C@]32C)[C@@]1(C)CCC(=O)O`
Response line: 2.42% [100 µM] (active)

Prompt line: Then `Clc1ccc(N2CCN(CCCN3CCN(c4cccc(Cl)c4)CC3)CC2)cc1` ?
Response line: 44.1% (inactive)

Prompt line: Again, but for `CCNc1cc2c(cc1Br)-c1ccccc1C2=O`
Response line: 107% (inactive)

Prompt line: Next entry: `CC1=CC[C@@H]2C(C)(C)C(=O)CC[C@@]2(C)[C@@H]1COc1ccc2ccc(=O)oc2c1`
Response line: 89% (inactive)

Prompt line: Proceed to CC1Cc2c(ncnc2-n2cnc3ccccc32)N(C)c2ccccc21 (centres undefined)
Response line: 12.9% (inactive)

Prompt line: Now consider `O=C(CSc1nc2ccc([N+](=O)[O-])cc2[nH]1)Nc1ccc(F)c(Cl)c1` and answer again.
Response line: 25.4% (inactive)

Prompt line: Moving on to the next compound: `CCN(CC)CCCCCCNc1cccc2cc(Br)cnc12`
Response line: 50.1% (inactive)

Prompt line: Entry `O=c1cc(-c2ccccc2)oc2cc(OCc3cn(Cc4ccc(F)cc4)nn3)cc(O)c12` please
Response line: 65.9% [100 µM] (inactive)

Prompt line: Same again, this time with CCOC(=O)c1nn(C2CCCCO2)c2ccc(NS(=O)(=O)c3ccc(C)cc3)cc12 (centres undefined)
Response line: 101% (inactive)

Prompt line: Next record, please: `COc1c(C(C)=O)c(OCCCCOc2c(C(C)=O)c(OC)c3ccoc3c2OC)c(OC)c2occc12`
Response line: 99.3% (inactive)

Prompt line: Follow-up entry: `Nc1ccc(NC(=O)c2ccccc2)c2c1C(=O)c1ccccc1C2=O`
Response line: 100% (inactive)

Prompt line: Also `COc1ccc(-c2ccc(NNC(=O)c3ccc(F)cc3)nn2)cc1OC` ?
Response line: 100% (inactive)

Prompt line: Same again, this time with `O=C(CCN1CCCCC1)c1ccc(Cl)cc1`
Response line: 107% (inactive)

Prompt line: Now consider `CCOc1ccccc1/C=N\Nc1ccc(S(=O)(=O)c2ccc(N/N=C/c3ccccc3OCC)cc2)cc1` and answer again.
Response line: 96.9% (inactive)

Prompt line: What do we get for `COc1ccc(C(=O)CSc2nnc(-c3cc(-c4ccccc4)nc4ccccc34)o2)cc1` ?
Response line: 105% (inactive)

Prompt line: Input `FC(F)(F)c1ccc2c(c1)Sc1ccccc1N2`
Response line: 98.3% (inactive)

* * *

Each entry below carries its reported growth.
System: BT-549 breast
EXPERIMENT: NCI-60 one-dose screen, 48 h (100 = growth as untreated, 0 = no growth, -100 = all killed)
CONDITION PARAMETERS: 10 µM unless noted
About 83,000 compounds went through this panel and 20% of them were active in at least one assay; those are over-represented in the sample as a whole.
Please reply with the bare figure in % and do not write the unit itself.

Consider the worked cases shown below.
CCCCNC(=O)NS(=O)(=O)Cc1ccccc1 | 104
COc1ccccc1S(=O)Nc1ccccc1 (stereo not drawn) | 108

Next molecule, growth to be filled in.
Prompt line: Request the reported growth associated with CCOC(=O)c1nn(C2CCCCO2)c2ccc(NC(=O)Cn3nnc4ccccc43)cc12 (stereo not drawn)
Response line: 96

* * *

Test system: HCT-15 colon
EXPERIMENT: NCI-60 one-dose screen, 48 h
CONDITION PARAMETERS: 10 µM unless noted
Compounds without any hit were thinned out: in the full panel of roughly 83,000, 20% have a hit. The source made the active and inactive calls. Rule for the calls: active = growth percent below 10; inactive = the rest.
Select the matching outcome among 1 for active, 0 for inactive

COc1cc2c(cc1OCCCCCOc1ccc(-n3c(C)nc4ccccc4c3=O)cc1)N=C[C@@H]1CCCN1C2=O | 1
O=C(O)CC1CCCCC1c1ccccc1 (stereo not given) | 0
CCCCCCCCCCCCCCNC(=O)Nc1ccc(Cl)c(Cl)c1 | 0
COc1ncnc2c(-c3ccccc3)cn(COCc3ccccc3)c12 | 0

Prompt line: What outcome does the record of this test show for `CC(=O)OC[C@]12CC[C@@H]([C@@H](C)C(N)=O)[C@@H]1[C@H]1CC[C@@H]3[C@@]4(C)CC[C@H](OC(C)=O)C(C)(C)[C@@H]4CC[C@@]3(C)[C@]1(C)CC2` ?
Response line: 1

Prompt line: Input `O=C(CCN1CCCCC1)c1ccc(Cl)cc1`
Response line: 0

Prompt line: Then this molecule: `O=S(=O)(c1ccc(N/N=C\c2ccccc2Cl)cc1)c1ccc(N/N=C/c2ccccc2Cl)cc1`
Response line: 0

Prompt line: Would you mind doing `CC[C@]12C=CCN3CC[C@@]4(c5ccc(OC)cc5N(C)[C@H]4[C@@](O)(C(=O)OC)[C@@H]1OC(=O)CCC(=O)N[C@H](Cc1c[nH]c4ccccc14)C(=O)OC)[C@@H]32` as well?
Response line: 1

Prompt line: Further, for `CC1(C)C(=NO)C(C)(C)C1=NO` ?
Response line: 0

Prompt line: Check `CC(C)C1=NOC(=O)C1=Cc1cn(-c2ccccc2)nc1-c1ccccc1` too.
Response line: 0

* * *

Tested on: K-562 leukemia
EXPERIMENT: NCI-60 one-dose screen, 48 h
CONDITION PARAMETERS: 10 µM unless noted
This is part of a sample that, as a whole, favours compounds with a hit. Of some 83,000 tested, about 20% had one in any assay. Activity calls are given as the source filed them. How the source made its calls: active means growth percent below 10; inactive means the rest.
Thanks in advance; please answer with one of these: active, inactive

Study these solved cases before continuing.
CCCCCCCCCCCCCCCCCCNC(=S)N/N=C/c1ccc(OC)c(OC)c1 | inactive
C=C(C)C1CCC2(C(=O)O)CCC3(C)C(CCC4C5(C)CCC(OC(=O)NCc6ccccc6)C(C)(C)C5CCC43C)C12 (stereo not given) | inactive
FC(F)(F)c1ccc2c(c1)Sc1ccccc1N2 | inactive
c1ccc(-c2n[nH]c(-c3ccccn3)n2)nc1 | inactive

Prompt line: Which result was noted for this compound in the test: CCN(CC)c1ccc2cc(C(Nc3ccc(Br)c(C(F)(F)F)c3)c3nnnn3C(C)(C)C)c(=O)oc2c1 (stereo not given)
Response line: inactive

Prompt line: Another compound: `CC(C)(C)c1cc(C(=O)N2CCC(C(=O)NCCN)CC2)cc(C(C)(C)C)c1`
Response line: inactive

Prompt line: Next record, please: CCN(CC)CCCC(C)Nc1ccnc2cc(Cl)c(SCc3ccccc3)cc12 (stereo not given)
Response line: active

Prompt line: Continue with `Cc1cccc(/C=C2\N=C(c3ccccc3)N(c3ccc(S(N)(=O)=O)cc3)C2=O)c1`
Response line: inactive

Prompt line: Also check `CCNC(=O)N1CCc2c(Cl)c3c(c(OC)c2[C@@H]1[C@H]1OCc2c1ccc(OC)c2OC)OCCO3`
Response line: inactive

Prompt line: And what about the compound `O=C(Nc1ccc(Cl)c(C(F)(F)F)c1)Nc1ccc(-c2cccnc2)cc1N1CCC(CO)CC1` ?
Response line: inactive

Prompt line: # iterate: `COc1ccc2c(c1)c(-c1noc(-c3cn(C)c4ncc(F)cc34)n1)cn2C`
Response line: inactive

Prompt line: Record: `NC(=O)c1cccc(-c2ccc(S(=O)(=O)Nc3ccc4c(c3)N(C(=O)C3CC3)CCC4)cc2)c1`
Response line: inactive

Prompt line: Now consider `Cc1ccc(Oc2c(/C=N/NC(=O)Cn3c(=O)sc4ccccc43)c(C)nn2-c2ccccc2)cc1` .
Response line: inactive

Prompt line: Do the same for `COc1ccc(C(=O)c2nccc3cc(OC)c(OC)cc23)cc1OC` please
Response line: inactive

Prompt line: What about `O=C(Nc1cc(-c2cccnc2)nc(NCCCN2CCOCC2)n1)c1cc(Br)cc(C(F)(F)F)c1` ?
Response line: active

Prompt line: Now consider `Cc1cc(NN=C(c2ccc(O)cc2)c2ccc(O)cc2)c([N+](=O)[O-])cc1[N+](=O)[O-]` .
Response line: inactive

Prompt line: Follow-up item: `COc1ccc(C=C2c3ccccc3-c3ccccc32)cc1`
Response line: inactive

Prompt line: Same question for `Nc1cc(N)c(N=Nc2ccc(S(=O)(=O)O)cc2)cc1N=Nc1ccc(-c2ccc(N=Nc3ccc(O)c(C(=O)O)c3)cc2)cc1` please.
Response line: inactive

Prompt line: What do you have for CCc1ccc(-c2ccc(COc3ccc(CC4SC(=O)NC4=O)cc3)cc2)cc1 (stereo not given) ?
Response line: inactive

Prompt line: What do we get for `CCOC(=O)c1ccc2nc(-c3c(C)nn(-c4ccccc4)c3N3CCOCC3)[nH]c2c1` ?
Response line: inactive

Prompt line: Okay, and `CCOC(=O)c1c[nH]n2c(=S)ncnc12` ?
Response line: inactive

Prompt line: // query: `O=C(N/N=C/c1ccc([N+](=O)[O-])cc1)c1ccc(Br)o1`
Response line: inactive

Prompt line: Try `CC1(C)[C@@H](NOCCCN)CC[C@]2(C)[C@H]3C(=O)C=C4[C@@H]5C[C@](C)(C(=O)O)CC[C@]5(C)CC[C@@]4(C)[C@]3(C)CC[C@@H]12` next.
Response line: active

Prompt line: Try this compound too: CCOC(=O)c1nn(C2CCCCO2)c2ccc(NS(=O)(=O)c3ccc(C)cc3)cc12 (stereo not given)
Response line: inactive

Prompt line: Please answer likewise for `COc1cc(C)cc2oc3oc(=O)c(-c4nc5ccccc5s4)cc3c(=O)c12`
Response line: inactive
